Below, each entry is listed alongside its reported TGI.
- Test system: HS 578T breast
- PROTOCOL TEXT: NCI tumour cell line growth inhibition, 48 h
MEASURED PROPERTY: TGI

> print(dat)
                                    compound  measured.property     result
 1        CCCC(=O)NC1=C(Cl)C(=O)c2ccccc2C1=O                TGI  > 39.9 µM
 2      O=C(c1ccco1)N1CCCN(C(=O)c2ccco2)C1=S                TGI   > 100 µM
 3  COC(=O)c1c(O)ccc2c1c1c(n2Cc2ccccc2Cl)C(=O)c2ccccc2C1=O                TGI      59 µM
 4  CCCN1C(=O)CC(C)N(Cc2ccccc2Cl)C1=S (stereo unspecified)                TGI   > 100 µM
 5  COc1ccc2nc3c([N+](=O)[O-])ccc4c3c(c2c1)NCCN4CCO                TGI    2.79 µM
 6  O=C(O)c1cc2ccccc2c(N=Nc2ccc(S(=O)(=O)Nc3nccs3)cc2)c1O                TGI   > 100 µM
 7  Nn1c(COc2cccc(OCc3n[nH]c(=S)n3N)c2)n[nH]c1=S                TGI   > 100 µM
 8  OC(c1cc2ccccc2o1)c1cc2ccccc2s1 (stereo unspecified)                TGI    > 10 µM
 9  CCOc1ccc2nc(SCc3nc4n(n3)S(=O)(=O)c3ccccc3N4C)sc2c1                TGI   > 100 µM
10            CC(C)/C(Cl)=N\OC(=O)Nc1ccccc1F                TGI  > 69.3 µM
11  CCC12CCCN(Cc3ccccc3)C1c1c([nH]c3ccccc13)C(C(=O)OC)C2 (stereo unspecified)                TGI    > 10 µM

###

- System: EKVX NSCLC
- PROTOCOL TEXT: NCI tumour cell line growth inhibition, 48 h
MEASURED PROPERTY: TGI

> print(dat)
                                    compound    result
 1  O=C(CP(=O)(O)O)NC(CC(=O)OCc1ccccc1)C(=O)OCc1ccccc1 (configuration not stated)  > 100 µM
 2        Cc1c(Cl)nc(Nc2nc3ccccc3[nH]2)nc1Cl   84.5 µM
 3  O=C1NC(SSC2=NNC3(C(=O)N2)c2ccccc2-c2ccccc23)=NNC12c1ccccc1-c1ccccc12   > 10 µM
 4  O=c1[nH]c(=O)n(C2OC(COP(=O)(O)OP(=O)(O)OC3OC(CO)C(O)C(O)C3O)C(O)C2O)cc1F (configuration not stated)  > 100 µM
 5  COC(=O)[C@@H]1[C@@H](c2cccc(Cl)c2)[C@H](C(=O)OC)C2(C[C@@]1(C)O)NCCS2 (some centres not stated)  > 100 µM
 6    NC(N)=N/N=C/c1nc2n(c1[N+](=O)[O-])CCS2   76.5 µM
 7    COc1ccc(OC)c2c1CC(C(=O)O)(C(=O)O)CC2=O  > 100 µM
 8             CC1(C)N=C(C(N)=O)c2ncn(N)c2N1  > 100 µM
 9  CN1CCCC2(CCCc3ccccc32)C1 (configuration not stated)  > 100 µM
10                 CCC(CON(C)c1ccccc1)(SC)SC  > 100 µM
11  COC(=O)C1=C(C(=O)OC)C(C(=O)c2ccc(Br)cc2)N2N=C(c3ccc(Cl)cc3)C=CC12 (configuration not stated)  > 100 µM
12  Cc1ccc(S(=O)(=O)NC(=O)C2C(=O)CC3(CCCCC3)CC2=O)cc1   61.9 µM
13  Clc1nc(Cl)c2ncn(Cc3cccc(Cn4cnc5c(Cl)nc(Cl)nc54)c3)c2n1     11 µM
14  CCCCCC[N+](C)(C)Cc1ccc(C[N+](C)(C)CCCCCC)cc1   27.7 µM
15  Cc1ccc(S(=O)(=O)N/N=C(\c2nc3ccc(Cl)cc3[nH]c2=O)C(O)c2cccc([N+](=O)[O-])c2)cc1 (configuration not stated)  > 100 µM
16  CNC(=O)c1ccc(N2CCN(Cc3ccc4nc(C)c(=O)[nH]c4c3F)CC2)c(F)n1  > 100 µM
17                C#Cc1cccc(N2C(=O)CCC2=O)c1   34.3 µM

###

- System: K-562 leukemia
- PROTOCOL TEXT: NCI tumour cell line growth inhibition, 48 h
MEASURED PROPERTY: TGI

COMPOUND	RESULT
CN(C)CCCNC(=O)c1cc(NC(=O)c2cc(NC(=O)CCc3c[nH]c4ccccc34)cn2C)cn1C	> 100 µM
O=C1c2ccc(O)cc2C(=O)c2ccc(O)cc21	> 100 µM
Cc1nn(-c2nc3ccccc3[nH]2)c(N)c1-c1ccc(Cl)cc1	> 100 µM
CC(C)/C(Cl)=N\OC(=O)Nc1ccccc1F	6.52 µM
COc1ccc(/C=N/n2cnc3c(sc(=S)n3-c3ccccc3)c2=O)cc1	48.8 µM
CC(=O)OCCCOCn1c(Cc2ccccc2)c(C)c(=O)[nH]c1=O	> 100 µM
C[C@]12CCC(=O)C=C1CC[C@@H]1[C@@H]2[C@@H](O)C[C@@]2(C)[C@H]1CC[C@]2(O)C(=O)COC(=O)COCC(=O)O	> 100 µM
[Cl][Hg][Cl]	4.33 µM
CCSc1sc(=Nc2ccc(N=c3sc(C)c(SC)s3)cc2)sc1-c1ccc(C)cc1	> 100 µM
CCCCCC(=O)C(C)C1=Nc2nnc(CCCCCCCc3nnc4n3C(=O)C(C(C)C(=O)CCCCC)=N4)n2C1=O (configuration not stated)	> 100 µM
O=S(=O)(c1ccccc1)n1c2ccc(Br)cc2c2nc3ccccc3nc21	> 100 µM
COc1ccc(-c2cn[nH]c2-c2cc(OC)c3c(c2)OCO3)cc1	> 66.2 µM
Clc1ccc(SC(/C=C/NNC2=NC(c3ccccc3)C(c3ccccc3)=NN2)c2ccccc2)cc1 (configuration not stated)	53.1 µM
COc1cc(OC)cc(N(CCNC(C)C)c2ccc3ncc(-c4cnn(C)c4)nc3c2)c1	10.8 µM
C=C1C(=O)O[C@H]2[C@H]1CC/C(COC(=O)CSCCSCC(=O)OC/C1=C/CC[C@@]3(C)O[C@H]3[C@H]3OC(=O)C(=C)[C@@H]3CC1)=C\CC[C@@]1(C)O[C@@H]21	25.7 µM
Cc1ccc(N=N/C(=N\NC(=O)c2ccc(C)cc2)c2ccc(N(CCC#N)CCC#N)cc2C)cc1	> 100 µM
Cc1ccc(SC(CCC(Sc2ccc(C)cc2)Sc2ccc(C)cc2)Sc2ccc(C)cc2)cc1	> 100 µM
Cc1cc2c(ccc3c(C)cc(=O)oc32)o1	> 100 µM
FC(F)(F)c1nc2nc(Cl)c(Cl)nc2n1CCCN1CCOCC1	39.6 µM
[Cl-].[O-]/N=C(\c1ccccc1)c1ccccn1.[O-]/N=C(\c1ccccc1)c1ccccn1.[O-]/N=C(\c1ccccc1)c1ccccn1.[Sm+3]	> 100 µM
CC(=O)[CH-]C(C)=O.CC(=O)[CH-]C(C)=O.[CH2-]CCC.[CH2-]CCC.[Sn+4]	> 100 µM
Cc1sc2nc(-c3ccncc3)c(/C=N/N=C(N)N)n2c1C	> 100 µM
Oc1ccc(-c2nc(-c3cccnc3)c(-c3ccc(Cl)cc3)[nH]2)cc1O	> 100 µM
Cc1ccc(S(=O)(=O)NC(=O)C2C(=O)CC3(CCCCC3)CC2=O)cc1	> 100 µM
C[C@H](CCC(=O)NCCS(=O)(=O)O)[C@H]1CC[C@H]2[C@@H]3CC[C@@H]4C[C@H](O)CC[C@]4(C)[C@H]3CC[C@]12C	> 100 µM
Clc1nc(Cl)c2ncn(Cc3cccc(Cn4cnc5c(Cl)nc(Cl)nc54)c3)c2n1	17.1 µM
CC(C)=CCc1c(OC(=O)c2c(C)cc(O)cc2O)cc(CO)c(CO)c1O	32.9 µM
CCOC(=O)C1N(S(=O)(=O)c2ccc(C)cc2)CCC12c1ccccc1N(C(C)=O)C2c1ccc(OC)c(OC)c1 (configuration not stated)	> 100 µM
CC1=Nc2nc(Cl)cn2C(=O)C1(Cl)Cl	> 10 µM
CN1CCCC2(CCCc3ccccc32)C1 (configuration not stated)	> 100 µM
CN(C)c1ccc(C(=C(c2ccc(N(C)C)cc2)c2ccc(N(C)C)cc2)c2ccc(N(C)C)cc2)cc1	36.9 µM
Cc1ccc(-c2csc(/N=C3\C(=O)Nc4ccccc43)n2)cc1	> 100 µM
COc1ccc(OC)c(/C(C)=N/NC(N)=S)c1	> 100 µM
O=C1Nc2ccccc2C12CCNC2Cc1ccccc1 (configuration not stated)	> 100 µM
CCOC(=O)N1CCN(c2nc(Nc3cc(C)[nH]n3)c3ccccc3n2)CC1	> 100 µM
COc1cccc(-c2nc3sccn3c2-c2ccnc(NCCCNS(=O)(=O)c3cccc(F)c3)c2)c1	> 100 µM
O=C(/C=C/c1ccc(O)cc1)c1ccc2c(c1)OCO2	81.5 µM
